Test system: L929 cells
procedureDetails: MTT cytotoxicity assay, L929 healthy cells
Format: cell-based
conditionSummary: 24 h incubation, healthy mouse fibroblast
As shown below, each of these molecules has a reported IC50 value.
reportedEndpoint: IC50 (µM)

- molecule: "O=C(Cc1cccs1)NCc1nc2ccccc2s1 [Compound 28]"
  measureUnit: "µM"
  endpointResult: 31
- molecule: "COc1cccc(CC(=O)Nc2nc3ccccc3s2)c1 [Compound 21]"
  measureUnit: "µM"
  endpointResult: 66.3
- molecule: "COc1ccc(OC)c(CC(=O)Nc2nc3ccccc3s2)c1 [Compound 20]"
  measureUnit: "µM"
  endpointResult: 87.8

* * *

Catalogue of Selectivity MDA‐MB‐231 values
System: MDA‐MB‐231 cells
procedureDetails: MTT antiproliferative assay, MDA-MB-231
Type: cell-based, human
conditionSummary: Selectivity index = L929 IC50 / MDA‐MB‐231 IC50 (24 h)

- compound: "O=C(Nc1nc2ccccc2s1)c1ccc(Br)cc1 [Compound 5]"
  targetOrTestSystem: "MDA‐MB‐231 cells"
  Selectivity MDA‐MB‐231: 2.033
- compound: "COc1cccc(CC(=O)NCc2nc3ccccc3s2)c1 [Compound 26]"
  targetOrTestSystem: "MDA‐MB‐231 cells"
  Selectivity MDA‐MB‐231: 1.753
- compound: "O=C(Nc1nc2ccccc2s1)c1ccc(Cl)cc1 [Compound 9]"
  targetOrTestSystem: "MDA‐MB‐231 cells"
  Selectivity MDA‐MB‐231: 1.068
- compound: "O=C(Cc1ccccc1)Nc1nc2ccccc2s1 [Compound 19]"
  targetOrTestSystem: "MDA‐MB‐231 cells"
  Selectivity MDA‐MB‐231: 8.744
- compound: "COc1ccc(OC)c(CC(=O)Nc2nc3ccccc3s2)c1 [Compound 20]"
  targetOrTestSystem: "MDA‐MB‐231 cells"
  Selectivity MDA‐MB‐231: 5.464
- compound: "O=C(Nc1nc2ccccc2s1)c1ccccc1 [Compound 7, N‐(Benzo[d]thiazol‐2‐yl) benzamide]"
  targetOrTestSystem: "MDA‐MB‐231 cells"
  Selectivity MDA‐MB‐231: 2.284
- compound: "O=C(Cc1ccc(Cl)cc1)NCc1nc2ccccc2s1 [Compound 27]"
  targetOrTestSystem: "MDA‐MB‐231 cells"
  Selectivity MDA‐MB‐231: 2.243
- compound: "O=C(Cc1ccc(Cl)cc1)Nc1nc2ccccc2s1 [Compound 23]"
  targetOrTestSystem: "MDA‐MB‐231 cells"
  Selectivity MDA‐MB‐231: 7.666
- compound: "O=C(Cc1ccc(F)cc1)Nc1nc2ccccc2s1 [Compound 22]"
  targetOrTestSystem: "MDA‐MB‐231 cells"
  Selectivity MDA‐MB‐231: 55.413
- compound: "Cc1ccc(C(=O)NCc2nc3ccccc3s2)cc1 [Compound 18]"
  targetOrTestSystem: "MDA‐MB‐231 cells"
  Selectivity MDA‐MB‐231: 1.442
- compound: "O=C(Nc1nc2ccccc2s1)c1ccco1 [Compound 4]"
  targetOrTestSystem: "MDA‐MB‐231 cells"
  Selectivity MDA‐MB‐231: 1.305
- compound: "COc1ccc(CC(=O)Nc2nc3ccccc3s2)cc1 [Compound 24]"
  targetOrTestSystem: "MDA‐MB‐231 cells"
  Selectivity MDA‐MB‐231: 6.306
- compound: "O=C(Cc1cccs1)Nc1nc2ccccc2s1 [Compound 25]"
  targetOrTestSystem: "MDA‐MB‐231 cells"
  Selectivity MDA‐MB‐231: 9.360
- compound: "O=C(NCc1nc2ccccc2s1)c1ccc(Br)cc1 [Compound 16]"
  targetOrTestSystem: "MDA‐MB‐231 cells"
  Selectivity MDA‐MB‐231: 1.766
- compound: "O=C(NCc1nc2ccccc2s1)c1cccs1 [Compound 14]"
  targetOrTestSystem: "MDA‐MB‐231 cells"
  Selectivity MDA‐MB‐231: 1.391

* * *

System: p38 MAPKα
procedureDetails: p38 MAPK alpha ELISA, total level in treated MCF7 cells normalised to total protein (BCA)
Format: cell-based, human
conditionSummary: MCF7 cells exposed to compound
reportedEndpoint: Total p38α MAPK levels (ng/μg protein)

- molecule: "O=C(Cc1ccc(Cl)cc1)Nc1nc2ccccc2s1 [Compound 23]"
  endpointResult: 2.331
- molecule: "Cc1ccc(C(=O)Nc2nc3ccccc3s2)cc1 [Compound 8]"
  endpointResult: 9.541
- molecule: "COc1ccc(C(=O)Nc2nc3ccccc3s2)cc1 [Compound 1]"
  endpointResult: 7.367
